Biological target: KDR (phospho-KDR, VEGF165-stimulated HUVEC cells) (Homo sapiens (Human), UniProt P35968)
Sequence (P35968 20-1356): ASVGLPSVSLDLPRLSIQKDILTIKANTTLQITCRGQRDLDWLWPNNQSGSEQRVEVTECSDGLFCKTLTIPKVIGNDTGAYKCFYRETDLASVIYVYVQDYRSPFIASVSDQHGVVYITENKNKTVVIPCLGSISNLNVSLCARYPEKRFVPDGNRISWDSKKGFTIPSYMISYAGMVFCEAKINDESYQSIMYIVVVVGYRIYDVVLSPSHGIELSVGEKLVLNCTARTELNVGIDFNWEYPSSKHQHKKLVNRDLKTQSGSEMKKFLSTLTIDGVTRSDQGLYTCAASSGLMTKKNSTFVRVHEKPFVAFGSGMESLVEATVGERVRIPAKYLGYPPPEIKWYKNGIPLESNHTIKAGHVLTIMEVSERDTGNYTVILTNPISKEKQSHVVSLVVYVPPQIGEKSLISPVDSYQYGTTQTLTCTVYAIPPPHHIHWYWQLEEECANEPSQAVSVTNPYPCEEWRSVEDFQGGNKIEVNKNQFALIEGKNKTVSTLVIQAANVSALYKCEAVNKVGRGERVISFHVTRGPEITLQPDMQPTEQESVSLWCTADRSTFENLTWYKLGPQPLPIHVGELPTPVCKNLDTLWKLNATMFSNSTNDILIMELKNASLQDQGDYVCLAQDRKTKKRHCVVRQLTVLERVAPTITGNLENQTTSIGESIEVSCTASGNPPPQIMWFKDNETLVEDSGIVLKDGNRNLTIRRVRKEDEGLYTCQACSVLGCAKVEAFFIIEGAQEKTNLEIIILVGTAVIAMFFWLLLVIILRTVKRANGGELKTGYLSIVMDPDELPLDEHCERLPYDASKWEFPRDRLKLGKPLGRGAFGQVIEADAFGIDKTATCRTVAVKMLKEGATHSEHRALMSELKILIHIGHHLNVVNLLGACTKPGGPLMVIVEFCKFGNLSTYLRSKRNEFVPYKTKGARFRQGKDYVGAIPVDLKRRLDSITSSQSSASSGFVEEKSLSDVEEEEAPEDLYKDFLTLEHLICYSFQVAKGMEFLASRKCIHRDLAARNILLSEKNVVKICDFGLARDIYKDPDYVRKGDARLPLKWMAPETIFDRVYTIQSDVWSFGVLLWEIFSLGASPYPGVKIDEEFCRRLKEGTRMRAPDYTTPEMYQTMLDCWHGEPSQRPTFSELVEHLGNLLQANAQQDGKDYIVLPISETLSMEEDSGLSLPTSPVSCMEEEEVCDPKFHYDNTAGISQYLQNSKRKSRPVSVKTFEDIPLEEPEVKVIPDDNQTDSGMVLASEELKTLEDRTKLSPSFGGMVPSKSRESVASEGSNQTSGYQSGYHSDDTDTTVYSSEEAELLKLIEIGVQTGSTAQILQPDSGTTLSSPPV
Assay: KDR autophosphorylation ELISA in HUVEC cells (Example G)
Format: cell-based
Settings: cellular activity; KDR autophosphorylation ELISA in HUVEC cells
I'd appreciate it if you could supply IC50 values for the items below.

Using the record for CCn1cc(C(=O)Nc2ccc(Oc3ccnc4cc(O)cnc34)c(F)c2)c(=O)c(-c2ccc(F)cc2)c1C [Compound 410] , report its IC50. > 300 nM

Using the record for Cc1ncc(C(=O)Nc2ccc(Oc3ccnc4cc(Br)cnc34)c(F)c2)c(O)c1-c1ccc(F)cc1 [Compound 133] , report its IC50. 100 to 300 nM

Using the record for CCc1nc(C)c(-c2ccc(F)cc2)c(O)c1C(=O)Nc1ccc(Oc2ccnc3cc(OC)cnc23)cc1 [Compound 188] , report its IC50. < 100 nM

Using the record for COc1cc2nccc(Oc3ccc(NC(=O)c4cn(C)c(C)c(-c5ccc(F)cc5)c4=O)cc3F)c2nc1OC [Compound 58] , report its IC50. < 100 nM

Using the record for CCn1cc(-c2ccc(F)cc2)c(=O)c(C(=O)Nc2ccc(Oc3ccnc4cc(OC)cnc34)c(F)c2)c1C [Compound 240] , report its IC50. > 300 nM

Using the record for COc1cnc2c(Oc3ccc(NC(=O)c4cnc(C)c(-c5ccc(F)cc5)c4O)cc3)ccnc2c1 [Compound 147] , report its IC50. < 100 nM

Using the record for COc1cc2nccc(Oc3ccc(NC(=O)c4c(C)nc(C)c(-c5ccc(F)cc5)c4O)cc3)c2nc1OC [Compound 173] , report its IC50. < 100 nM

###

Biological target: KDR (phospho-KDR, VEGF165-stimulated HUVEC cells) (Homo sapiens (Human), UniProt P35968)
Assay: KDR autophosphorylation ELISA in HUVEC cells (Example G)
Format: cell-based
Details: cellular activity; KDR autophosphorylation ELISA in HUVEC cells
pIC50: −log10 of the molar value. Structures can show the parent of a compound that is named as a salt.
I'd appreciate it if you could supply pIC50 values for the items below.

Using the record for COCCOc1cnc2c(Oc3ccc(NC(=O)c4c(C)nc(C)c(-c5ccc(F)cc5C)c4O)cc3F)ccnc2c1 , report its pIC50. > 7.00

Using the record for COc1nc2c(Oc3ccc(NC(=O)c4cnc(C)c(-c5ccc(F)cc5)c4O)cc3F)ccnc2cc1Br , report its pIC50. > 7.00

Using the record for COCc1nc(C)c(-c2ccc(F)cc2)c(O)c1C(=O)Nc1ccc(Oc2ccnc3ccc(OC)nc23)c(F)c1 , report its pIC50. > 7.00

Using the record for COCc1nc(C)c(-c2ccc(F)cc2)c(O)c1C(=O)Nc1ccc(Oc2ccnc3cc(OC)cnc23)c(F)c1 , report its pIC50. > 7.00

Using the record for Cc1nc(C)c(-c2ccc(F)cc2)c(O)c1C(=O)Nc1ccc(Oc2ccnc3cc(C(C)C)cnc23)c(F)c1 , report its pIC50. > 7.00

Using the record for COCCOc1cnc2c(Oc3ccc(NC(=O)c4c(C)nc(C)c(-c5ccc(F)cc5)c4O)cc3F)ccnc2c1 , report its pIC50. > 7.00

Using the record for COc1cnc2c(Oc3ccc(NC(=O)c4nn(C)c(C)c(-c5ccc(F)cc5)c4=O)cc3F)ccnc2c1 , report its pIC50. < 6.52

Using the record for CCc1nc(C)c(-c2ccc(F)cc2C)c(O)c1C(=O)Nc1ccc(Oc2ccnc3ccc(OC)nc23)cc1 , report its pIC50. > 7.00

Using the record for COc1cnc2c(Oc3ccc(NC(=O)c4ccnn(-c5ccc(F)cc5C)c4=O)cc3F)ccnc2c1 , report its pIC50. > 7.00

Using the record for COc1cc2nccc(Oc3ccc(NC(=O)c4cc(C(C)=O)c(C)n(-c5ccc(F)cc5)c4=O)cc3)c2nc1OC , report its pIC50. < 6.52

Using the record for COc1cc2nccc(Oc3ccc(NC(=O)c4cn(C(C)C)c(C)c(-c5ccccc5)c4=O)cc3F)c2nc1OC [Compound 29, hydrochloride] , report its pIC50. 6.52 to 7.00

Using the record for CCc1nc(C)c(-c2ccc(F)cc2)c(O)c1C(=O)Nc1ccc(Oc2ccnc3ccc(OC)nc23)cc1 , report its pIC50. > 7.00

Using the record for COCCOc1nc2c(Oc3ccc(NC(=O)c4cn(C)c(C)c(-c5ccc(F)cc5C)c4=O)cc3F)ccnc2cc1OC , report its pIC50. > 7.00

Using the record for COc1cnc2c(Oc3ccc(NC(=O)c4c(C)nc(C)c(-c5ccc(F)cc5)c4O)cc3)ccnc2c1 , report its pIC50. > 7.00
